# Target entity: Cytochrome P450 2C9 (Homo sapiens)
# Sequence (P11712 whole entry): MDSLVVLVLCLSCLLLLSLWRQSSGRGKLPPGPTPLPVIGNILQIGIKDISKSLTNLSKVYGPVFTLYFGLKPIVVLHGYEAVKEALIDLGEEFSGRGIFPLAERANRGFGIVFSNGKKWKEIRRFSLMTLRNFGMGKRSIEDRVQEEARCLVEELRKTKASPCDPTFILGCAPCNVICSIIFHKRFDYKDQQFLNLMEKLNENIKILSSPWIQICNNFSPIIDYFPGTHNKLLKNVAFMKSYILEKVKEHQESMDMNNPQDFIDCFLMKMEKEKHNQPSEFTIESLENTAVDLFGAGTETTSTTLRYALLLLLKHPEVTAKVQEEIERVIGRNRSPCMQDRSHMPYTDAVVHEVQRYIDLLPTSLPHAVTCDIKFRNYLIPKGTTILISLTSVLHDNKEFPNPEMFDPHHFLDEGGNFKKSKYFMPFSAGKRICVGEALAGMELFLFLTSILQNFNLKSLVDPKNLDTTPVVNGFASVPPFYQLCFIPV
Endpoint name: AC50

# Compound, Observed
rows = [
    ("O=C(NC1(C(F)(F)F)NC(=O)N(Cc2cccnc2)C1=O)c1ccccc1 (stereo unspecified)", "17.8 µM (inconclusive)"),
    ("O=C(Oc1ccccc1)N1CCC2(CCCN(c3ccccc3)C2)CC1", "12.6 µM (inconclusive)"),
    ("CCOc1c2ccc(C(=O)NCc3ccc(OC(F)(F)F)cc3)cc2nn1CC", "39.8 µM (inconclusive)"),
    ("COC(=O)[C@H]1C[C@@H]1[C@H](NC(=O)c1cc(C)on1)c1ccccc1", "31.6 µM (inconclusive)"),
]

# input Can you look up the measured AC50 of CCSc1nnc(NC(=O)Cc2ccc(OC)c(OC)c2)s1 for me?
# output 2.82 µM (inconclusive)

###

# Target entity: Polyadenylate-binding protein 1 (Homo sapiens)
# Sequence (P11940 whole entry): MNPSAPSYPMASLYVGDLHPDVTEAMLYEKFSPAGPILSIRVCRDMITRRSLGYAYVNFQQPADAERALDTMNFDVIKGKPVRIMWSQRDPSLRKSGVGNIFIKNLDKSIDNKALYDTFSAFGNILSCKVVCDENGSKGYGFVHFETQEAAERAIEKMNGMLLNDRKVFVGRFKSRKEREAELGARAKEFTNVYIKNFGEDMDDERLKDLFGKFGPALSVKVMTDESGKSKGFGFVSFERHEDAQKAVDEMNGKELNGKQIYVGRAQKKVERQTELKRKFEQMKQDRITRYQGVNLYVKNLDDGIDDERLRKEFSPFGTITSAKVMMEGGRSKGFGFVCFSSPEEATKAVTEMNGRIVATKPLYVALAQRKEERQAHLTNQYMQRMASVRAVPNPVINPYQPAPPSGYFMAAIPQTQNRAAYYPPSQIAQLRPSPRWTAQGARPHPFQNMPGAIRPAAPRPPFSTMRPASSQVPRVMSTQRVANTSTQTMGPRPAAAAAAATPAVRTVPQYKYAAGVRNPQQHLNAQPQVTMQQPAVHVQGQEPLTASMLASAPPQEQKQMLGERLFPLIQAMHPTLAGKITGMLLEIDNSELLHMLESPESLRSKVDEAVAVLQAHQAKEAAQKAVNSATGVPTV
# Measurement protocol: PABP1 MLLE–PAM2 binding inhibitor potency, dose response, biochemical, fluorescence polarization, FITC-PAM2 peptide (AID 602259)
# Format: functional
# Condition label: read-out: IC50_Mean
The source made the active and inactive calls.
Endpoint name: IC50

# Compound, Endpoint name, Observed
records = [
    ("CCc1nc2cccnc2n1-c1ccc(C(=O)O)cc1", "IC50", "49.5 µM (inactive)"),
    ("O=C(NC1=NCCS1)c1cccs1", "IC50", "> 66 µM (inactive)"),
    ("CC(c1nc(O)c2ccccc2n1)N(C)c1ccc2ccccc2c1 (stereo not given)", "IC50", "> 66 µM (inactive)"),
]

# input Can you look up the measured IC50 of Cc1cc(Cl)ccc1N=C(S)Nc1cccnc1 for me?
# output > 66 µM (inactive)

# input Can you look up the measured IC50 of CCOC(=O)c1c2c3c(cccc3n(C)c1=O)C(=O)c1ccccc1-2 for me?
# output 37.2 µM (inactive)

# input Can you look up the measured IC50 of COc1ccc(Cl)cc1N=C(S)Nc1ccccc1F for me?
# output > 66 µM (inactive)

# input Can you look up the measured IC50 of O=C1C(Br)=C(N2CCN(CCOCCO)CC2)C(=O)c2c(O)ccc(O)c21 for me?
# output 38.7 µM (inactive)

# input Can you look up the measured IC50 of O=C(NC(=S)Nc1ccc(S(=O)(=O)Nc2nccs2)cc1)c1cccnc1 for me?
# output > 66 µM (inactive)

# input Can you look up the measured IC50 of CN1/C(=C\C(=O)c2cccc([N+](=O)[O-])c2)Sc2ccccc21 for me?
# output > 66 µM (inactive)

# input Can you look up the measured IC50 of COC(=O)CC(NC(=S)NC(=O)c1ccccc1)c1ccc(Br)cc1 (stereo not given) for me?
# output > 66 µM (inactive)

###

# Target entity: G-protein coupled receptor 55 (Homo sapiens, UniProt Q9Y2T6)
# Sequence (Q9Y2T6 whole entry): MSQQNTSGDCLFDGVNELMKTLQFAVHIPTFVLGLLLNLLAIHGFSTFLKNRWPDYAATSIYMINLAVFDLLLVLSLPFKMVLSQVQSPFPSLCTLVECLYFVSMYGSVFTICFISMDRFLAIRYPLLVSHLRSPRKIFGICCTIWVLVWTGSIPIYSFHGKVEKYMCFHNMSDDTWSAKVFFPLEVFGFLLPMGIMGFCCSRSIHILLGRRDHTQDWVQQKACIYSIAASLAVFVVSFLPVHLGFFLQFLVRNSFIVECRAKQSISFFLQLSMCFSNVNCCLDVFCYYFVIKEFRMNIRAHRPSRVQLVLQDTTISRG
# Measurement protocol: GPR55 antagonists blocking LPI-driven arrestin recruitment, primary screen, imaging, U2OS, beta-arrestin-GFP, LPI agonist (AID 2013);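 note: antagonist potency measured as reduced agonist-driven arrestin aggregation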
# Type: functional
Active and inactive are the calls of the source.
Endpoint name: IC50

# Record smiles, Endpoint name, Observed
records = [
    ("CN(C(=O)c1cccc(COc2ccc(Cl)cc2Cl)c1)c1ccccc1", "IC50", "2.2 µM (active)"),
    ("Cn1nc(-c2ccc(Cl)cc2)nc2c(=O)n(C)c(=O)nc1-2", "IC50", "7.35 µM (active)"),
    ("O=C1OC(c2ccc(O)cc2)(c2ccc(O)cc2)c2ccccc21", "IC50", "6.67 µM (active)"),
]

// moving on: another record for IC50
# input Can you look up the measured IC50 of O=C(Nc1ccccc1Cl)c1ccccc1Oc1ccc(C(F)(F)F)cc1[N+](=O)[O-] for me?
# output 3.31 µM (active)
